Data origin, for the record: paper PMC7156458

target: Aβ42 (Homo sapiens, UniProt P05067); assay: Th-T (thioflavin-T) assay of Aβ42 aggregation; format: biochemical; settings: head suffix _50 (concentration 50); reading M70
Sequence (P05067 672-713): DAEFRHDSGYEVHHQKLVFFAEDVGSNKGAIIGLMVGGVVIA
Reported Th-T fluorescence of Aβ42 (sheet Fig. 7a), mean of three wells values are given for each entry in this list.
Answer using only a numeral; do not append any unit.

INSERT INTO measurements (molecule, reported_measurement) VALUES
  ('C=C1CC[C@@H]2[C@](C)(CC[C@H]3O[C@H](C=C(C)C)C[C@@]23C)[C@@H]1Cc1c(OC)oc(CO)c(C(=O)OC)c1=O [Compound 21]', 0.2583),
  ('C=C1CC[C@@H]2[C@](C)(CC[C@H]3O[C@H](C=C(C)C)C[C@@]23C)[C@@H]1Cc1c(OC)oc(CO)c(C)c1=O [Compound 20]', 2.078),
  ('C=C1CCC2C(C)(CCC=C(C)C)C(O)CCC2(C)C1Cc1c(OC)oc(C)c(C(=O)OC)c1=O (centres unmarked) [Compound 14]', 3.0995),
  ('C=C1CCC2C(C)(CCC=C(C)C)C(O)CCC2(C)C1Cc1c(OC)oc(CO)c(C)c1=O (centres unmarked) [Compound 12]', 1.435);

Shifting focus to the molecule that follows.
Lookup: Tell me its Th-T fluorescence of Aβ42 (sheet Fig. 7a), mean of three wells given C=C1CCC2C(C)(CCC=C(C)C)C(O)CCC2(C)C1Cc1c(OC)oc(CO)c(C(=O)OC)c1=O (centres unmarked) [Compound 13] as the entry.
Found: 0.4681
